The following molecules are listed with their measured solubility kinetic values.
- STATED_CONDITIONS: buffer; pH 7.4; 6.0 h; 150.0 µM
Quick note: give the figure in µg/mL, leave out the unit.

# MOLECULE, solubility kinetic, µg/mL
data = [
    ("CN1CCN(C2=Nc3ccccc3Sc3ccc(Cl)cc32)CC1", 18.7),
]

Now consider the entry below.
For NC1CCC(Nc2nc(Nc3ccc(C(=O)N4CCCCC4)cc3)c3ncn(-c4cccc(F)c4)c3n2)CC1 (stereo not given) , what is its reported solubility kinetic?
57.5

###

- STATED_CONDITIONS: buffer; pH 7.4; 6.0 h; 150.0 µM
Give true when the value for solubility kinetic is at least 5 µg/mL. Give false when it is less.

Below are worked cases with known answers.
# COMPOUND, CLASSIFICATION
rows = [
    ("Fc1ccc(Nc2nc(-c3ccnc4ccccc34)nc3ccccc23)cc1F", "false"),
    ("CC(C)(C)C1CCc2[nH]c3ccccc3c(=O)c2C1 (stereo not given)", "false"),
    ("O=C(Nc1ccc(S(=O)(=O)Nc2nccs2)cc1)c1cccc2ccccc12", "false"),
    ("O=C(NCCO)c1cccc(-c2cc(Nc3ccc(OC(F)(F)F)cc3)ncn2)c1", "true"),
    ("O=C(Nc1ccc(Cl)c(S(=O)(=O)N2CCOCC2)c1)c1ccc(S(=O)(=O)N2CCCCC2)cc1", "false"),
    ("O=S(=O)(Nc1ccccc1N1CCCCC1)c1ccc(Cl)s1", "false"),
]

Record CC(=O)N1CCc2cc(-c3nc(NC(=O)Cc4ccc5c(c4)OCO5)sc3C)ccc21 ; criterion: solubility kinetic no lower than 5 µg/mL. Met?
false

Confirm if solubility kinetic reported for the compound Cc1ccc(-c2nnc(Nc3ccc(Br)cc3)c3ccccc23)cc1S(=O)(=O)N1CCN(C)CC1 is 5 µg/mL or above.
false

Threshold query (solubility kinetic >= 5 µg/mL) on Cc1ccccc1C(=O)N1CCC(C(=O)N2CCC(N3Cc4ccccc4C3=O)CC2)CC1
true

###

- STATED_CONDITIONS: buffer; pH 7.4; 6.0 h; 150.0 µM
Output TRUE for solubility kinetic not less than 6 µg/mL; output FALSE otherwise.

# COMPOUND, CLASSIFICATION
records = [
    ("CNC(=O)c1ccc(C)c(-n2c(C)cc(OCc3ccc(F)cc3F)c(Br)c2=O)c1", "TRUE"),
    ("O=C(c1nc(-c2cccnc2)c2ccccn12)N1CCOCC1", "TRUE"),
]

Consider the record given below.
Does the compound CCOC(=O)c1nn(-c2ccc(OC)cc2)c(=O)c2c(N)scc12 have recorded solubility kinetic that is 6 µg/mL or more?
FALSE

###

- STATED_CONDITIONS: buffer; pH 7.4; 6.0 h; 150.0 µM
Think of 30 µg/mL as a floor: if solubility kinetic stands on it or above, it is satisfied; beneath it, not satisfied.

Is solubility kinetic at least 30 µg/mL? Consider O=S(=O)(Nc1nccs1)c1ccc(NCc2cccc(Br)c2O)cc1
satisfied

API: above_or_equal(metric=solubility kinetic, cutoff=30 µg/mL) for item Cc1sc2ncnc(Sc3nnnn3-c3ccccc3)c2c1-c1ccccc1
not satisfied

Does Cc1cnc(-c2ccccc2C2COC2)nc1NCC1CCN(c2cccnc2)CC1 have a reported solubility kinetic of at least 30 µg/mL?
satisfied

Please indicate if the recorded solubility kinetic for CCc1ccc(NC(=O)c2[nH]c(C)c(C(C)=O)c2C)cc1[S+](=O)([O-])N1CCCCCC1 meets or exceeds 30 µg/mL.
not satisfied

Does the molecule O=C(Nc1ccc([N+](=O)[O-])cc1Cl)c1cc(Cl)ccc1O have recorded solubility kinetic that is 30 µg/mL or more?
not satisfied

###

Reported solubility kinetic values are given for each entry in this list.
- STATED_CONDITIONS: buffer; pH 7.4; 6.0 h; 150.0 µM

# COMPOUND, RESULT_TYPE, RESULT
measured = [
    ("CSc1ncc(Cl)c(C(=O)Nc2c(C)cccc2C)n1", "solubility kinetic", "1.91 µg/mL"),
    ("Cc1nc(-c2ccco2)cc([C@H]2CN3CC[C@H]2C[C@@H]3CNC(=O)NC2CCCCC2)n1", "solubility kinetic", "> 63 µg/mL"),
    ("CCOc1ccc(CCNC(=O)c2cc3ccccc3n2Cc2cc(C)cc(C)n2)cc1OCC", "solubility kinetic", "< 1 µg/mL"),
]

// lookup solubility kinetic for Cc1ccc(-c2nc(NCC(=O)Nc3cccc(C(=O)O)c3)c3ccccc3n2)cc1
> 61 µg/mL

###

- STATED_CONDITIONS: buffer; pH 7.4; 6.0 h; 150.0 µM
RESULT_TYPE: solubility kinetic (µg/mL)
Answer in µg/mL, number only, no unit symbol.

# COMPOUND, solubility kinetic, µg/mL
measured = [
    ("CCOc1ccc(CCNC(=O)c2cc3sccc3n2CCN2CCOCC2)cc1OCC", 52.4),
    ("O=C(O)c1ccc(-c2c[nH]c3ncc(-c4ccccc4)cc23)cc1C1CCCC1", 7.57),
]

Need solubility kinetic, item Cc1cc(-c2cc3c(nc2-c2ccccc2)nc(C(=O)NCCN(C)C)n3C)ccn1
54.5

Please give the measured solubility kinetic for this compound: CN1CC(CNC(=O)OCc2ccccc2)C[C@H]2c3cccc4c3c(cn4C)CC21 (stereo not given in full)
38.4

Suppose we examine the compound CCc1ccc(NC(=O)CSC2=Nc3ccccc3C3=NC(CC(=O)NCc4ccc5c(c4)OCO5)C(=O)N23)cc1 (stereo not given) ; what solubility kinetic value has been reported?
2.36

Reported solubility kinetic, compound Cc1cc(-c2nnc3n2CCCCC3)c(C)n1-c1ccc(C(C)(C)C)cc1 : ____
20.9

I'd like to know its solubility kinetic. The compound in question is O=C(Nc1cccc(Cc2ccccc2)n1)c1ccc(-c2cccc([N+](=O)[O-])c2)o1
2.73

If you can, please state the reported solubility kinetic value of COC(=O)c1ccc2nc(NC3=NC(c4[nH]ncc4Cl)C4=C(CCCC4=O)N3)oc2c1 (stereo not given) .
1.62

Fill in: solubility kinetic of COc1ccccc1CNS(=O)(=O)c1ccc(-c2cnc(C3CC3)o2)cc1 is ___
2.61

Fill in: solubility kinetic of CC1=NN(c2ccc(C(=O)O)cc2)C(=O)/C1=C/c1ccc(-c2cc(C)c(C)cc2[N+](=O)[O-])o1 is ___
1.01

###

- STATED_CONDITIONS: buffer; pH 7.4; 6.0 h; 150.0 µM
RESULT_TYPE: log10 solubility kinetic (log10 of the value in µg/mL)
Base-10 log of solubility kinetic, unit µg/mL.

Some entries whose results are on file:
# COMPOUND, log10 solubility kinetic
measured = [
    ("COc1ccnc(NC(=S)N2CCN(c3ccc(Cl)c(Cl)c3)CC2)c1", 0.50),
    ("O=C(CCCCn1c(=O)[nH]c2ccsc2c1=O)N1CCN(c2cccc(Cl)c2)CC1", 1.08),
    ("O=C1CCCC2=C1C(c1[nH]ncc1Cl)N=C(Nc1nc3ccc(F)cc3o1)N2 (stereo unspecified)", 0.18),
    ("CNc1nccc(-c2cccc3ccccc23)n1", 0.65),
    ("Cc1cccc2nc(-c3ccccn3)c(Nc3ccc(F)cc3)n12", 1.53),
]

# input compound: CC(=O)c1c(C)n(-c2ccccc2)c2ccc(O)cc12 ; wanted: its log10 solubility kinetic
0.06

GET /values?readout=log10 solubility kinetic&item= Cc1cc(C)nc(NC(=S)N2CCN(c3ccc(Cl)cc3F)CC2)c1
0.53

Entry under review: Brc1ccc(-c2csc(N3CCOCC3)n2)cc1 . Reported log10 solubility kinetic?
0.05

Can you look up the measured log10 solubility kinetic of Nc1nc(Nc2ccc(S(N)(=O)=O)cc2)nn1C(=O)c1c(F)cccc1F for me?
1.66

###

- STATED_CONDITIONS: buffer; pH 7.4; 6.0 h; 150.0 µM
This listing pairs compounds with measured solubility kinetic.

# COMPOUND, solubility kinetic
rows = [
    ("Cc1nc2sccn2c(=O)c1S(=O)(=O)Nc1ccc(N2CCN(C)CC2)cc1", "> 62 µg/mL"),
    ("CCOc1ccc(CCNC(=O)c2cc3ccncc3n2Cc2cccc(C)n2)cc1OCC", "> 68 µg/mL"),
]

Given the entry Cc1ccc(S(=O)(=O)Nc2cnccc2C(=O)Nc2nc(-c3ccc4c(c3)CCCC4)cs2)cc1 , report its measured solubility kinetic.
< 1 µg/mL

Suppose we examine the compound Cc1ccccc1C(=O)N1CCc2cc(-c3nc(NC(=O)Cc4ccccc4)sc3C)ccc21 ; what solubility kinetic value has been reported?
< 1 µg/mL

So what does the record say about solubility kinetic for Cc1ccc(-c2cc3c(nn2)-c2ccccc2C3=O)cc1 ?
< 1 µg/mL

Give the measured solubility kinetic of CC(C)c1ccc(-n2ncc3c(=O)n(CC(=O)Nc4cc(F)ccc4Cl)cnc32)cc1 .
< 1 µg/mL

Recorded solubility kinetic of Cc1cc(C)nc(NC(=S)N2CCN(c3ccncc3)CC2)c1 , please.
> 48 µg/mL

Entry under review: Cc1ccc(C)c(SC2=NS(=O)(=O)c3ccccc32)c1 . Reported solubility kinetic?
< 1 µg/mL

Fill in: solubility kinetic of COC(=O)C1=C(C)NC(=O)CC1C(=O)Nc1ccc(Cl)cc1 (stereo not given) is ___
31.2 µg/mL

For the compound CC(C)(C)C(O)C(Oc1ccc(Cl)cc1)n1cncn1 (stereo not given) , what solubility kinetic is on record?
> 44 µg/mL
